# credit: patent EP4700025A1

ASSAY_PROTOCOL: Pharmacokinetic assay in mice
Assay type: in vivo, Balb/c mice
CONDITION: plasma, 2 mg/kg; mouse, IV 2mpk
Property: AUC(0-t); scope: individual compounds
A number alone suffices; assume µM·h.

Record excerpt, results attached:
Exam item: Given the compound `Nc1nc2cnc(C(=O)N3CCOC[C@@H]3c3ccc4c(c3)OC(F)(F)O4)cc2c2c1COC2` , what is its reported AUC(0-t)?
Marked response: 13.4

Exam item: Given the compound `Cn1ncc2c(N)nc3cnc(C(=O)N4CCOC[C@@H]4c4ccc5c(c4)OC(F)(F)O5)cc3c21` , what is its reported AUC(0-t)?
Marked response: 7.87

// switching to the query compound
Exam item: Given the compound `Cn1ncc2c(N)nc3cc(F)c(C(=O)N4CCOC[C@@H]4c4ccc5c(c4)OC(F)(F)O5)cc3c21` , what is its reported AUC(0-t)?
Marked response: 4.65

---

ASSAY_PROTOCOL: Pharmacokinetic assay in rats
Type: in vivo, SD rats
CONDITION: SD, plasma, 10 mg/kg; rat, PO 10mpk
OUTCOME_MEASURE: Tmax (h)
A number alone suffices; assume h.

Exam item: Given the compound `Cn1ncc2c(N)nc3cc(F)c(C(=O)N(Cc4ccc5c(c4)OC(F)(F)O5)C4CC4)cc3c21` , what is its reported Tmax?
Marked response: 4.7

// switching to the query compound
Exam item: Given the compound `CN(Cc1ccc2c(c1)OC(F)(F)O2)C(=O)c1ccc2nc(N)c3cnn(C)c3c2c1` , what is its reported Tmax?
Marked response: 2.3

---

Property: R_AUC(t/∞); scope: individual molecules
ASSAY_PROTOCOL: Pharmacokinetic assay in mice
Type: in vivo, Balb/c mice
CONDITION: mouse, PO 10mpk
A number alone suffices; assume %.

Record excerpt, results attached:
Exam item: Given the molecule Cn1ncc2c(N)nc3cc(F)c(C(=O)N(Cc4ccc5c(c4)OC(F)(F)O5)C4CC4)cc3c21 [Example I-16] , what is its reported R_AUC(t/∞)?
Marked response: 99.6

Exam item: Given the molecule CN(Cc1ccc2c(c1)OC(F)(F)O2)C(=O)c1cc2c(cc1F)nc(N)c1cnn(C)c12 [Example I-1] , what is its reported R_AUC(t/∞)?
Marked response: 98.3

Exam item: Given the molecule CN(Cc1ccc2c(c1)OC(F)(F)O2)C(=O)c1ccc2nc(N)c3cnn(C)c3c2c1 [Example I-2] , what is its reported R_AUC(t/∞)?
Marked response: 96.3

Exam item: Given the molecule CCN(Cc1ccc2c(c1)OC(F)(F)O2)C(=O)c1ccc2nc(N)c3cnn(C)c3c2c1 [Example I-5] , what is its reported R_AUC(t/∞)?
Marked response: 99.9

More entries:
Exam item: Given the molecule Cn1ncc2c(N)nc3cc(F)c(C(=O)N4CCOC[C@@H]4c4ccc5c(c4)OC(F)(F)O5)cc3c21 [Example I-7] , what is its reported R_AUC(t/∞)?
Marked response: 97.1

---

ASSAY_PROTOCOL: Pharmacokinetic assay in mice
Format: in vivo, Balb/c mice
CONDITION: plasma, 100 mg/kg; mouse, PO 100mpk
OUTCOME_MEASURE: AUC(0-t) (µM·h)
A number alone suffices; assume µM·h.

Exam item: Given the compound `Cn1ncc2c(N)nc3cnc(C(=O)N4CCOC[C@@H]4c4ccc5c(c4)OC(F)(F)O5)cc3c21` , what is its reported AUC(0-t)?
Marked response: 710

---

ASSAY_PROTOCOL: Pharmacokinetic assay in mice
Format: in vivo, Balb/c mice
CONDITION: plasma, 100 mg/kg; mouse, PO 100mpk
OUTCOME_MEASURE: Cmax (µM)
A number alone suffices; assume µM.

Exam item: Given the compound `Cn1ncc2c(N)nc3cnc(C(=O)N4CCOC[C@@H]4c4ccc5c(c4)OC(F)(F)O5)cc3c21` , what is its reported Cmax?
Marked response: 52.1

---

ASSAY_PROTOCOL: Pharmacokinetic assay in mice
Format: in vivo, Balb/c mice
CONDITION: plasma, 10 mg/kg; mouse, PO 10mpk
OUTCOME_MEASURE: Tmax (h)
A number alone suffices; assume h.

Exam item: Given the molecule Cn1ncc2c(N)nc3cc(F)c(C(=O)N4CCOC[C@@H]4c4ccc5c(c4)OC(F)(F)O5)cc3c21 [Example I-7] , what is its reported Tmax?
Marked response: 2

---

ASSAY_PROTOCOL: Pharmacokinetic assay in mice
Type: in vivo, Balb/c mice
CONDITION: plasma, 2 mg/kg; mouse, IV 2mpk
OUTCOME_MEASURE: C0 (nM)
A number alone suffices; assume nM.

Exam item: Given the compound Cn1ncc2c(N)nc3cc(F)c(C(=O)N4CCOC[C@@H]4c4ccc5c(c4)OC(F)(F)O5)cc3c21 [Example I-7] , what is its reported C0?
Marked response: 2620

---

MEASUREMENT_TARGET: CYP450 1A2 (Homo sapiens)
Construct: from tissue; host or cells: human liver microsomes
Sequence (P05177 whole entry): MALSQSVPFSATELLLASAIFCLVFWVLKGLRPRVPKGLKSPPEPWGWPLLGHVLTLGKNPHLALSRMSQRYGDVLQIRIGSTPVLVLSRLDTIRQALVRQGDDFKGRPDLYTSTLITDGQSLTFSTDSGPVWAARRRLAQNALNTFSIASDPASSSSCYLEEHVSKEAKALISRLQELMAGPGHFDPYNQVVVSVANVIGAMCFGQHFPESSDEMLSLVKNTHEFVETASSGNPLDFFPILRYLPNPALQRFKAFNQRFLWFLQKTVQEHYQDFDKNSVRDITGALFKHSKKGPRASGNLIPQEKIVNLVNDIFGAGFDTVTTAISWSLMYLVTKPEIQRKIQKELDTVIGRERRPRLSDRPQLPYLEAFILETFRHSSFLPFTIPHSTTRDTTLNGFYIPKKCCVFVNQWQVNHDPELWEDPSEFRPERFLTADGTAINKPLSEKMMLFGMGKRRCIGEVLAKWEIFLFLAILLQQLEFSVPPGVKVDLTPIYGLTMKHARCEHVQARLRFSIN
ASSAY_PROTOCOL: Inhibition of human liver microsome CYP450 enzyme 1A2
Assay type: in vitro ADME
CONDITION: human liver microsomes, 1A2; read-out: IC50
pIC50: −log10 of the molar value.
OUTCOME_MEASURE: pIC50

Exam item: Given the compound Cn1ncc2c(N)nc3cc(F)c(C(=O)N(Cc4ccc5c(c4)OC(F)(F)O5)C4CC4)cc3c21 [Example I-16] , what is its reported pIC50?
Marked response: < 5.00

---

ASSAY_PROTOCOL: Pharmacokinetic assay in mice
Type: in vivo, Balb/c mice
CONDITION: plasma, 10 mg/kg; mouse, PO 10mpk
OUTCOME_MEASURE: AUC(0-inf) (µM·h)
A number alone suffices; assume µM·h.

Exam item: Given the compound `Cn1ncc2c(N)nc3cc(F)c(C(=O)N4CCOC[C@@H]4c4ccc5c(c4)OC(F)(F)O5)cc3c21` , what is its reported AUC(0-inf)?
Marked response: 39.1

---

ASSAY_PROTOCOL: Pharmacokinetic assay in mice
Format: in vivo, Balb/c mice
CONDITION: male, Balb/c, plasma, 10 mg/kg; mouse, PO 10mpk
OUTCOME_MEASURE: AUC(0-t) (µM·h)
A number alone suffices; assume µM·h.

Record excerpt, results attached:
Exam item: Given the compound CCN(Cc1ccc2c(c1)OC(F)(F)O2)C(=O)c1ccc2nc(N)c3cnn(C)c3c2c1 [Example I-5] , what is its reported AUC(0-t)?
Marked response: 12.4

Exam item: Given the compound CN(Cc1ccc2c(c1)OC(F)(F)O2)C(=O)c1ccc2nc(N)c3cnn(C)c3c2c1 [Example I-2] , what is its reported AUC(0-t)?
Marked response: 18.1

More entries:
Exam item: Given the compound Cn1ncc2c(N)nc3cc(F)c(C(=O)N(Cc4ccc5c(c4)OC(F)(F)O5)C4CC4)cc3c21 [Example I-16] , what is its reported AUC(0-t)?
Marked response: 34.4

Exam item: Given the compound Nc1nc2cnc(C(=O)N3CCOC[C@@H]3c3ccc(C(F)(F)F)cc3)cc2c2c1COC2 [Control compound B, reference compound] , what is its reported AUC(0-t)?
Marked response: 26.5

Exam item: Given the compound CN(Cc1ccc2c(c1)OC(F)(F)O2)C(=O)c1cc2c(cc1F)nc(N)c1cnn(C)c12 [Example I-1] , what is its reported AUC(0-t)?
Marked response: 18.1

---

ASSAY_PROTOCOL: Pharmacokinetic assay in rats
Type: in vivo, SD rats
CONDITION: SD, plasma, 10 mg/kg; rat, PO 10mpk
Procedure: In this experimental example, the pharmacokinetic behavior of the test compounds after administration by intravenous injection (IV) and oral gavage (PO) in SD rats was tested. On the day of administration, rats were weighed for actual body weight, and the administration volume was calculated. […] Plasma concentrations were determined by the LC-MS/MS method. […] The relevant pharmacokinetic parameters were calculated by a linear-log trapezoidal method.
OUTCOME_MEASURE: AUC(0-inf) (µM·h)
A number alone suffices; assume µM·h.

Exam item: Given the compound CN(Cc1ccc2c(c1)OC(F)(F)O2)C(=O)c1ccc2nc(N)c3cnn(C)c3c2c1 [Example I-2] , what is its reported AUC(0-inf)?
Marked response: 17.2

// switching to the query compound
Exam item: Given the compound Cn1ncc2c(N)nc3cc(F)c(C(=O)N(Cc4ccc5c(c4)OC(F)(F)O5)C4CC4)cc3c21 [Example I-16] , what is its reported AUC(0-inf)?
Marked response: 13.2

---

MEASUREMENT_TARGET: CYP450 2C9 (Homo sapiens, UniProt P11712)
Construct: from tissue; host or cells: human liver microsomes
Sequence (P11712 whole entry): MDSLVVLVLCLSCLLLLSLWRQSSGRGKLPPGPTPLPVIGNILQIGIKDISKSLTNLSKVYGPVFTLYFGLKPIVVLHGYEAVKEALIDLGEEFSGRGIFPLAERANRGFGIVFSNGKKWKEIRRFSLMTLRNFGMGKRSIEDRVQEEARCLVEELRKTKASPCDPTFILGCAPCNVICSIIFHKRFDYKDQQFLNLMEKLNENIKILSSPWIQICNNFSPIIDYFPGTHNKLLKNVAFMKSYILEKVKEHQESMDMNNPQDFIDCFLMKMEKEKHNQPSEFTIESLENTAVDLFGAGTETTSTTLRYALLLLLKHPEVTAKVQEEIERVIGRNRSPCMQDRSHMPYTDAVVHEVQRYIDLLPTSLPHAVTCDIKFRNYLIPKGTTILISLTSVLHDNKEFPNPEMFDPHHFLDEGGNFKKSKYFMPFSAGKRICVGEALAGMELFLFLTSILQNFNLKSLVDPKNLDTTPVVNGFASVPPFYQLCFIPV
ASSAY_PROTOCOL: Inhibition of human liver microsome CYP450 enzyme 2C9
Assay type: in vitro ADME
CONDITION: human liver microsomes, 2C9; read-out: IC50
OUTCOME_MEASURE: IC50

Exam item: Given the compound `Cn1ncc2c(N)nc3cc(F)c(C(=O)N(Cc4ccc5c(c4)OC(F)(F)O5)C4CC4)cc3c21` , what is its reported IC50?
Marked response: > 10 µM
